A collection of sequences and their measured folding enthalpy
Test: folding enthalpy; higher = less favourable; fluorescence melt of hairpins on a sequencing array, two-state fit
Settings: sodium 0.088 M
A number alone suffices; assume kcal/mol.

residue-string: GCTGCAGGAAACTGTGGC ((..(((....)))..))
display-unit: kcal/mol
folding enthalpy: -25.8
--
residue-string: GTGCCAGGAAACTGACAC (((.(((....))).)))
display-unit: kcal/mol
folding enthalpy: -35.5
--
residue-string: GGCCAACCGAAAGGTGCC (((..(((....))))))
display-unit: kcal/mol
folding enthalpy: -23.8
--
residue-string: GCACTAGGAAACCAGTGC (((((.(....).)))))
display-unit: kcal/mol
folding enthalpy: -34.1

Challenge: Quick check: folding enthalpy of GCACCCGAAAGGGAGTGC ((((((....)))..))) ?
Response given: -38.3

Challenge: What would you report for GTTGCCGAAAGGCAAAAC ((((((....)))..))) ?
Response given: -9.67

Challenge: What would you report for GTTTATCGAAAGATCAAC (((.(((....))).))) ?
Response given: -22.1

Challenge: What would you report for GACTGTGGAAACACAATC ((.((((....)))).)) ?
Response given: -15.5

Challenge: What would you report for GGTCAACGAAAGTTTACC (((.(((....))).))) ?
Response given: -28.8

Challenge: What would you report for GGGGTGGGAAACCATCCC (((.(((....))).))) ?
Response given: -41.7

Challenge: What would you report for GCAGCGCGAAAGCGTGGC ((..(((....)))..)) ?
Response given: -23.1

Challenge: What would you report for GGCATGCGAAAGCAGCC (((.(((....)))))) ?
Response given: -21.6

Challenge: What would you report for GATTTTGAAAAAAATC ((((((....)))))) ?
Response given: -23.7

Challenge: What would you report for GATCTCCACCGAGATC ((((((....)))))) ?
Response given: -37.2
